assay: yeast display, Sf9 membrane polyspecificity reagent, FACS + sequencing; frameworks hold sequencing errors
Assay endpoint: polyreactivity (PSR sort gate)

Record sequence	Result
QVQLVESGGGLVQAGGSLRLSCAASGSIFYVNTIGWYRQAPGKERELVAGITSRGGSTYYADSVKGRFTISRDNAKNTVYLQMNSLKPEDTAVYYCAKRAYGTALYRGYGYWGQGTQVTVSS	low polyreactivity
QVQLVESGGGLVQAGGSLRLSCAASGRIFPAYVMGWYRQPPGKERELVATIDNGGGTYYADSVKGRFTISRDNAKNTVYLQMNSLKPEDTAVYYCARDPHVRWGLKMDYWGQGTQVTVSS	low polyreactivity
QVQLVESGGGLVQAGGSLRLSCAASGRIFSYKAMGWYRQAPGKERELVAAISFSTTSTYYADSVKGRFTISRDNAKNTVYLQMYSLKPEDTAVYYCNTPGLPIDSEYDYWGQGTQVTVSS	low polyreactivity
QVQHVESGGGLVQAGGSLRLSCAASGSTFTYNAMGWYRQAPGKEREKVASISSGTTTYYADSVKGRFTISRDNAKNTVYLQMNSLKPEDTAVYYCAVDSWSRVQGWLAHNYDYWGQGTLVTVSS	low polyreactivity
